The measured values listed here are drawn from the supplement of paper PMC10065799.

experimental_target: FGFR3 (UniProt P22607)
Sequence (P22607 whole entry, looked up): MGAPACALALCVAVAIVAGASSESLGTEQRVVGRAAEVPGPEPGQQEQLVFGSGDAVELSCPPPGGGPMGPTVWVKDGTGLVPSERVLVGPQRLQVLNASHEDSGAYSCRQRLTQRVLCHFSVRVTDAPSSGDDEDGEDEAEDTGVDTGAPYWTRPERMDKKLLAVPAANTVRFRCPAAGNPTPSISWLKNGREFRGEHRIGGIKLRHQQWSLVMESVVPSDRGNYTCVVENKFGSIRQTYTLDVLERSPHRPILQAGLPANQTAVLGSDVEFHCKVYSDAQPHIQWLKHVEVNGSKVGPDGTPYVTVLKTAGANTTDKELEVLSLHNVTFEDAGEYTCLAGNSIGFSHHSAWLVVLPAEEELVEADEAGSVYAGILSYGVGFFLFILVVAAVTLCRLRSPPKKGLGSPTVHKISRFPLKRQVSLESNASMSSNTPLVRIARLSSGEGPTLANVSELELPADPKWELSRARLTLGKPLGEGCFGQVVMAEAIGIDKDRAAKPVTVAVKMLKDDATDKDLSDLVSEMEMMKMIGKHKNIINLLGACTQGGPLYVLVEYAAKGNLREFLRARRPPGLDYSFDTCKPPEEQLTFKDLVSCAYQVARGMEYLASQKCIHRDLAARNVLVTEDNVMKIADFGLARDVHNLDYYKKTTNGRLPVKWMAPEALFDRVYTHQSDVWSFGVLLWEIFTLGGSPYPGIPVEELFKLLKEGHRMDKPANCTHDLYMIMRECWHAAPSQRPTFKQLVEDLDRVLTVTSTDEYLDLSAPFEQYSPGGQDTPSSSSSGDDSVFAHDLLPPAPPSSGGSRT
measurement_description: phosphorylation enrichment, bacterial display (enrichment ratio); higher = better substrate or ligand; peptides without Tyr show the background
property_name: phosphorylation enrichment
When you answer, write just the number.

{"biopolymer_sequence": "REGAKYVSHGA [ASS1_Y113]", "phosphorylation enrichment": 0.501}
{"biopolymer_sequence": "PEYVVYKPQME [CCRL2_Y170_F167Y]", "phosphorylation enrichment": 6.08}
{"biopolymer_sequence": "PDKRIYQFTAS [SKAP2_Y197_A202S]", "phosphorylation enrichment": 0.649}
{"biopolymer_sequence": "IFHLSYHHNCE [PDE6B_Y227_L228H_YF]", "phosphorylation enrichment": 0.694}
{"biopolymer_sequence": "LHSEAYLKFIE [PBRM1_Y1610_YF]", "phosphorylation enrichment": 1.21}
{"biopolymer_sequence": "ITVPAYFNDSQ [HSPA9_Y196]", "phosphorylation enrichment": 0.672}
{"biopolymer_sequence": "RAHARYCADAC [ACOT4_Y52_R57C]", "phosphorylation enrichment": 0.395}
{"biopolymer_sequence": "TLEKYYFAFPG [SLC1A1_Y51_F50Y]", "phosphorylation enrichment": 12}
{"biopolymer_sequence": "ANAYIYDVQLP [L1CAM_Y420_V421D]", "phosphorylation enrichment": 0.89}
{"biopolymer_sequence": "NVTRKYTRQIL [MAP3K2_Y463]", "phosphorylation enrichment": 0.353}

// lookup phosphorylation enrichment for ISIFYYAKGQP [MPZ_Y82_H81Y]
0.674

# get_value(readout='phosphorylation enrichment', item= EKLQKYYRKNP [EHHADH_Y682_Q685K] )
0.598

Give the measured phosphorylation enrichment of FADIAYNFRHR [PAH_Y166_G171R_YF] .
0.44

# get_value(readout='phosphorylation enrichment', item= GGEEFYVHFVG [KAT8_Y90_R86G_YF] )
0.96

Please give the measured phosphorylation enrichment for this sequence: ESKKHYGFSLF [ANXA3_Y295_F291S_YF]
0.678

// query phosphorylation enrichment value for entry HFEDGYPGGSD [CTNND1_Y221_YF]
0.806

Report phosphorylation enrichment for NRSSLYLVAGP [KIAA1614_Y1083] please.
0.607

Which phosphorylation enrichment value belongs to IFGVSYDEFRF [CFTR_Y512_YF] ?
0.609

I am curious: what phosphorylation enrichment value has been reported for FRSSLYSLMET [MYO5C_Y633_L634S] ?
0.947

Item DEENFYQGSME [ASCC1_Y36_D34N] has what recorded phosphorylation enrichment?
0.647

May I ask what phosphorylation enrichment has been recorded for QNTGDYCDLFG [PTPN11_Y62_Y63C_YF] ?
3.7

// query phosphorylation enrichment value for entry ETALHYIHDGI [GATD3A_Y250]
0.637

# query: phosphorylation enrichment of entry FPKDVYVDSKD [NDUFAF4_Y69_L65P]
0.59

Request the reported phosphorylation enrichment associated with LNPDGYEKAFE [CPXM2_Y427_YF]
0.704

Reported phosphorylation enrichment, sequence SAPDSYIRIGN [SLC38A4_Y27_G29R] : ____
0.436

Give the measured phosphorylation enrichment of RREWFYEVIIA [BACE1_Y260_V265A_YF] .
0.764

For the sequence shown here, RPAPQYPHQVP [ADAM12_Y895] , give the reported phosphorylation enrichment.
1.03

# lookup: phosphorylation enrichment of WHHTFYNELCV [ACTC1_Y93_R97C]
0.979

Quick one: phosphorylation enrichment for EQQRAYLEGTC [HLA-C_Y183_L180Q] ?
0.602

====

experimental_target: SHP2-C SH2
measurement_description: SH2 binding enrichment of the phosphorylated peptide, bacterial display (enrichment ratio); higher = better substrate or ligand; peptides without Tyr show the background
property_name: SH2 binding enrichment

Answered examples (8):
{"biopolymer_sequence": "QSSALYEDRYL [ASS1_Y83]", "experimental_target": "SHP2-C SH2", "measurement": 0.493}
{"biopolymer_sequence": "QADVVYVNTQL [MERTK_Y872_I871V]", "experimental_target": "SHP2-C SH2", "measurement": 1.43}
{"biopolymer_sequence": "QEVLEYFMKQM [PIK3CA_Y1038_A1035V]", "experimental_target": "SHP2-C SH2", "measurement": 0.584}
{"biopolymer_sequence": "QSSEGYGLGDR [KIAA1210_Y564]", "experimental_target": "SHP2-C SH2", "measurement": 0.861}
{"biopolymer_sequence": "VSLEAYCKHKY [RXRA_Y403_A398V]", "experimental_target": "SHP2-C SH2", "measurement": 0.627}
{"biopolymer_sequence": "ECKASYPGKIT [PRSS3_Y232]", "experimental_target": "SHP2-C SH2", "measurement": 0.56}
{"biopolymer_sequence": "KVITDYFVDMK [MPP4_Y566_YF]", "experimental_target": "SHP2-C SH2", "measurement": 0.717}
{"biopolymer_sequence": "PYRSIYFSSPK [MPG_Y75]", "experimental_target": "SHP2-C SH2", "measurement": 1.34}

What SH2 binding enrichment value was documented for this sequence, KVKSIYFHTQG [AR_Y916_P914S] ?
0.793

Which SH2 binding enrichment value is on record for MIHSAYALGGL [CPS1_Y590_R587H] ?
0.64

Reported SH2 binding enrichment, sequence CDSSGYWTPEE [PAPPA2_Y908] : ____
1.08

Entry under review: KPGVNYFFRVS . Reported SH2 binding enrichment?
0.749

State the recorded SH2 binding enrichment for this entry: RPGSGYTNIMR [PKLR_Y564]
1.43

# SH2 binding enrichment lookup, item SKHRLYSDLQT [PTCHD1_Y84]
1.12

====

experimental_target: c-Src SH2
measurement_description: SH2 binding enrichment of the phosphorylated peptide, bacterial display (enrichment ratio); higher = better substrate or ligand; peptides without Tyr show the background
condition met means recorded SH2 binding enrichment is 0.5 or above; condition not met means it is below 0.5.

Completed entries (count: 4):
{"biopolymer_sequence": "RLTEGYTGPFK [ZNF862_Y181_I178T]", "discrete_label": "condition met"}
{"biopolymer_sequence": "TDLAYYLVREG [ASL_Y376_K380E]", "discrete_label": "condition met"}
{"biopolymer_sequence": "YDRREYSRFEK [ITGB7_Y758]", "discrete_label": "condition met"}
{"biopolymer_sequence": "KKEGPYDVVVL [PARK7_Y67]", "discrete_label": "condition met"}

Test whether the sequence AYRRGYFDEEM [PLEC_Y2971] records SH2 binding enrichment of 0.5 or higher.
condition not met

Say whether RELGEYGLQAF [ALDH2_Y497_YF] shows SH2 binding enrichment of 0.5 or more.
condition met

Quick check, SH2 binding enrichment >= 0.5? EYGFRYELVQY [UGGT2_Y1289]
condition met

Is the recorded value of SH2 binding enrichment equal to or greater than 0.5 for this sequence? KRGIDYILWHM [FRMD1_Y225_R228W]
condition met

Please indicate if the recorded SH2 binding enrichment for QSSALYEDRYL [ASS1_Y83] meets or exceeds 0.5.
condition met

Threshold query (SH2 binding enrichment >= 0.5) on NAMRRYIEEFQ [MNS1_Y244]
condition not met

Form field: SH2 binding enrichment at least 0.5? Entry: KVGPGSLGSGG [RET_Y826_Y826S]
condition not met

I'd appreciate it if you could say whether NTGDDYDLYGG [PTPN11_Y63_Y62D] has SH2 binding enrichment at least equal to 0.5.
condition met

====

experimental_target: FGFR1 (UniProt P11362)
Sequence (P11362 whole entry, looked up): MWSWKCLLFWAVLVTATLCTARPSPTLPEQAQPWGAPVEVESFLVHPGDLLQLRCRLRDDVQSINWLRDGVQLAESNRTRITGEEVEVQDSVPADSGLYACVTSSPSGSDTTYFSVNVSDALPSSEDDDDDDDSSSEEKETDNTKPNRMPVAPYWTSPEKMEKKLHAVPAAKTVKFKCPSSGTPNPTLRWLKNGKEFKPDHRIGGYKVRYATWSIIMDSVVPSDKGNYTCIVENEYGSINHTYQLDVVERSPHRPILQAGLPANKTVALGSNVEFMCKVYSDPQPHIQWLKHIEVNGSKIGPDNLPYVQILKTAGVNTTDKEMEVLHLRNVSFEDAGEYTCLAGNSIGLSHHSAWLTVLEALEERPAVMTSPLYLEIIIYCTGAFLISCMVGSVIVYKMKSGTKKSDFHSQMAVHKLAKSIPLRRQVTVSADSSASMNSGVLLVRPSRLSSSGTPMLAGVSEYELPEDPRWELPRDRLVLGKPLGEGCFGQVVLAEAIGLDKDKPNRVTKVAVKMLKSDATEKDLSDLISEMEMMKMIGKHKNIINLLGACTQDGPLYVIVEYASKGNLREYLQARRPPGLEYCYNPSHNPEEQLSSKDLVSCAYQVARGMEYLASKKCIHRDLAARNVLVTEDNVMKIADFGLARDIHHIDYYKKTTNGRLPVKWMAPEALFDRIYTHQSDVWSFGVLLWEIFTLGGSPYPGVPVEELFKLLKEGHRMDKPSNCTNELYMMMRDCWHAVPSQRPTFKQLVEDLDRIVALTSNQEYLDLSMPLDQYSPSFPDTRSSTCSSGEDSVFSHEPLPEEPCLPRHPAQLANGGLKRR
measurement_description: phosphorylation enrichment, bacterial display (enrichment ratio); higher = better substrate or ligand; peptides without Tyr show the background
Measured phosphorylation enrichment of individual entries
Reply: number alone, nothing else.

For orientation, consider the following solved cases.
{"biopolymer_sequence": "ILTYKYLQKPM [KIT_Y547]", "experimental_target": "FGFR1 (UniProt P11362)", "phosphorylation enrichment": 0.396}
{"biopolymer_sequence": "IENKPYGMSDP [RET_Y1062_L1061P]", "experimental_target": "FGFR1 (UniProt P11362)", "phosphorylation enrichment": 0.504}
{"biopolymer_sequence": "EEHIPYTHMNG [INSR_Y1361]", "experimental_target": "FGFR1 (UniProt P11362)", "phosphorylation enrichment": 0.497}

Fill blank: measured phosphorylation enrichment of the sequence CLAKMYFSAVE [CP_Y539_D544E_YF] is ____.
0.599

What value of phosphorylation enrichment has been recorded for this entry: YCRHNYGAVES [HLA-DRB1_Y112_V114A]
0.519

Query (sequence): LQTYRYHGHSM [PDHA1_Y289] ; field requested: phosphorylation enrichment
0.323

Dear colleague, I am looking for the recorded phosphorylation enrichment of the following sequence: VYLGAYDCFLP [SLC22A5_Y486_R488C]
1.15
